Tested on: Rattus norvegicus
Procedure text: Clearance in rat blood at 1 mg/kg, iv
Assay type: ADME, organism-based
Parameters: dose 1 mg/kg, route intravenous
Condition context: in vivo
Measurement type: clearance (mL/min/kg)

Smiles str	Measured result
CN1C[C@@H](C(=O)NCc2ccc(Cl)cc2Cl)N(C)C1=O	30

====

Parameter: Vd. Scope: all listed entries.
Procedure text: Volume of distribution at steady state in rat at 1 mg/kg, iv and 3 mg/kg, po
Format: ADME, organism-based
Condition context: in vivo, read-out: Vdss

Compound	Units text	Vd
CN1C(=O)CC[C@H]1C(=O)NCc1cccc(C(F)(F)F)c1Cl [GSK1482160]	L/kg	1
CN1C(=O)NC[C@H]1C(=O)NCc1ccc(Cl)cc1Cl	L/kg	1.3

====

Procedure text: Clearance in rat blood at 1 mg/kg, iv
Assay type: ADME, organism-based
Set-up: dose 1 mg/kg, route intravenous
Condition context: blood
Measurement type: clearance (mL/min/kg)

Smiles str	Measurement type	Units text	Measured result
CN1C(=O)NC[C@H]1C(=O)NCc1ccc(Cl)cc1Cl	clearance	mL/min/kg	6
CN1C[C@@H](C(=O)NCc2cccc(Cl)c2Cl)N(C)C1=O	clearance	mL/min/kg	49

====

Procedure text: Oral bioavailability in rat at 1 mg/kg, iv and 3 mg/kg, po
Type: ADME, organism-based
Condition context: in vivo

Smiles str	Units text	bioavailability
CN1C(=O)NC[C@H]1C(=O)NCc1ccc(Cl)cc1Cl	%	100

====

Procedure text: Solubility of the compound in FeSSIF
Type: physicochemical

Smiles str	Units text	solubility
CN1C(=O)NC[C@H]1C(=O)NCc1ccc(Cl)cc1Cl	µg/mL	780

====

Procedure text: Clearance in rat blood at 1 mg/kg, iv and 3 mg/kg, po
Assay type: ADME, organism-based
Measurement type: clearance

Compound	Measurement type	Measured result
CN1C(=O)NC[C@H]1C(=O)NCc1ccc(Cl)cc1Cl	clearance	6 mL/min/kg
CN1C(=O)CC[C@H]1C(=O)NCc1cccc(C(F)(F)F)c1Cl [GSK1482160]	clearance	9 mL/min/kg

====

Procedure text: Ratio of drug level in brain to plasma in rat chronic joint pain model at 20 mg/kg, po after 1 hr
Assay type: ADME, organism-based
Parameters: dose 20 mg/kg, route oral
Condition context: brain and plasma, read-out: BBR
Parameter: Kp at 1 h. Scope: all listed entries.

Smiles str	Comparison symbol	Kp at 1 h
CN1C(=O)NC[C@H]1C(=O)NCc1ccc(Cl)cc1Cl	=	0.3
Cc1ncccc1N1C[C@@H](C(=O)NCc2ccc(Cl)cc2Cl)N(C)C1=O	<	0.1

====

Target entity: P2X purinoceptor 7 (Homo sapiens, UniProt Q99572)
Sequence (Q99572 whole entry): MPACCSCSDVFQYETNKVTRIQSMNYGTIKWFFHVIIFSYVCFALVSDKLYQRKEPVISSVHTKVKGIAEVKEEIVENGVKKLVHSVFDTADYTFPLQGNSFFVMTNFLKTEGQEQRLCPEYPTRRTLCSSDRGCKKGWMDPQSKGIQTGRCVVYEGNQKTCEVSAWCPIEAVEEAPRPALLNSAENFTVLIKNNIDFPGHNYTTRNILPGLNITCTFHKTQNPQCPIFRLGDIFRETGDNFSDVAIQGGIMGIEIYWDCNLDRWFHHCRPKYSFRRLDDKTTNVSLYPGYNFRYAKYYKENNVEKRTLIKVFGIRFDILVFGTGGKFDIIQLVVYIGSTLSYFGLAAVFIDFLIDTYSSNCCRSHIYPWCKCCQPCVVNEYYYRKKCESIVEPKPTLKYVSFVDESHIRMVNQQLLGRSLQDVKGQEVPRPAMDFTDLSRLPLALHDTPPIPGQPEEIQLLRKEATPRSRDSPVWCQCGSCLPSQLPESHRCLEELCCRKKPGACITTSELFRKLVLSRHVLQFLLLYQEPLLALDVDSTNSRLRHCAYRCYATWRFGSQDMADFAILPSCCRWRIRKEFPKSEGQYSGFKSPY
Procedure text: Antagonist activity at human recombinant P2X7 receptor expressed in HEK293 cells by ethidium accumulation assay
Parameter: log10(IC50). Scope: all listed entries.
Measurement type: log10(IC50) (log10 of the value in nM)

Smiles str	Measurement type	Measured result
CN1C(=O)COC[C@H]1C(=O)NCc1cccc(C(F)(F)F)c1Cl	log10(IC50)	0.60
CN1CCC(N2C[C@@H](C(=O)NCc3cccc(C(F)(F)F)c3Cl)N(C)C2=O)CC1	log10(IC50)	1.50
CN1C[C@@H](C(=O)NCc2ccc(Cl)cc2Cl)N(C)C1=O	log10(IC50)	0.30
Cc1ncccc1N1C[C@@H](C(=O)NCc2cccc(C(F)(F)F)c2Cl)N(C)C1=O	log10(IC50)	0.70
CN1C(=O)N(CCN2CCOCC2)C[C@H]1C(=O)NCc1cccc(C(F)(F)F)c1Cl	log10(IC50)	1.40
CN1C(=O)C(C)(C)C[C@H]1C(=O)NCc1cccc(C(F)(F)F)c1Cl	log10(IC50)	1.40
CN1C(=O)C(F)(F)C[C@H]1C(=O)NCc1cccc(C(F)(F)F)c1Cl	log10(IC50)	0.60
Cc1ncccc1N1C[C@@H](C(=O)NCc2ccc(Cl)cc2Cl)N(C)C1=O	log10(IC50)	1.00
Cc1cccc(N2C[C@@H](C(=O)NCc3cccc(C(F)(F)F)c3Cl)N(C)C2=O)n1	log10(IC50)	1.90
CN1C(=O)NC[C@H]1C(=O)NCc1cccc(C(F)(F)F)c1Cl	log10(IC50)	0.60
CN1C(=O)N(c2nccn2C)C[C@H]1C(=O)NCc1cccc(C(F)(F)F)c1Cl	log10(IC50)	0.60
CN1C(=O)OC[C@H]1C(=O)NCc1cccc(C(F)(F)F)c1Cl	log10(IC50)	1.20
CN1C(=O)NC[C@H]1C(=O)NCc1cccc(Cl)c1Cl	log10(IC50)	1.40
